- measurement description: loss of swimming-algae plug formation – whole organism, Chlamydomonas reinhardtii, WT vs cilia-less mutant, absorbance, 96-well, primary screen (AID 463189);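 further: 0% = wild type cc124 cells in DMSO and 100% = ciliumless bld1 mutant cells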
- measurement conditions: Chlamydomonas reinhardtii gravitaxis, OD600 absorbance, 2 days; at 10 µM; stronger effect = higher value
recorded metric: inhibition (%)

O=C1NCCN2CCCC12 (stereo unspecified) = 13.6
CN(C)CCc1nn[nH]n1 = 25.8
C[C@H]1CCC/C=C/C2C[C@H](O)CC2[C@H](O)/C=C/C(=O)O1 (stereo partly specified) = 155
C=C1CC[C@@]2(O)[C@H]3Cc4ccc(O)c5c4[C@@]2(CCN3CC2CC2)[C@H]1O5 = -15.6
CN[C@@H](C)[C@H](O)c1ccccc1 = -4.11
CCCCCCn1c(O)c(C(C)=NC)c(=O)[nH]c1=O = -6.02
NCC#Cc1ccccc1 = 1.68
O=C1CC[C@@]2(O)C3Cc4ccc(O)c5c4C2(CCN3CC2CC2)[C@H]1O5 (stereo partly specified) = -3.7
C=CCN1CC[C@]23c4c5ccc(O)c4O[C@@H]2/C(=N/N=C2\CC[C@@]4(O)C6Cc7ccc(O)c8c7[C@@]4(CCN6CC=C)[C@@H]2O8)CC[C@@]3(O)C1C5 = 6.59
COC(=O)C(O)(c1c[nH]c2ccccc12)C(F)(F)F (stereo unspecified) = -11.1
N[C@@]1(C(=O)O)CC[C@@H](C(=O)O)C1 = 5

----------
Measured inhibition of individual entries
- target desc: Dual specificity protein phosphatase 6 (Homo sapiens)
- measurement description: Primary imaging screen for DUSP6 inhibitors that restore phospho-Erk in transfected HeLa cells, chemical complementation (AID 609);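 further: phospho-Erk level distribution per well compared with pooled transfected vehicle control wells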
- measurement conditions: HeLa MKP-3 transfected, phospho-Erk imaging KS statistic, at 10 µM, stronger effect = higher value
recorded metric: inhibition (%)

O=C1c2ccccc2C(=O)N1Cc1nc2ccccc2c(=O)n1-c1cccnc1 = -4.27
CCCSP1(=S)NCCCO1 (stereo not given) = -2.07
CC(=O)[C@H]1CC[C@H]2[C@@H]3CC[C@H]4C[C@H](O)CC[C@]4(C)[C@H]3C(=O)C[C@]12C = -6.41
CNCC(O)c1ccc(O)cc1 (stereo not given) = -0.828
C[C@H]1OC[C@@H](C[N+](C)(C)C)O1 = 16.8
NCC1(c2ccc3c(c2)OCCO3)CCCC1 = -13.3
O=c1[nH]c(=O)n(CCc2ccccc2)c(O)c1C=NCCN1CCNCC1 = -3.5
CC(C)(C)OC(=O)c1c(N)n(Cc2ccco2)c2nc3ccccc3nc12 = 13.4
CCCCSP1(=S)NCCCN1 = 22.7
CC(=O)C1(c2ccccc2)CCNCC1 = 7.93
NCC(CC(=O)O)c1ccc(Cl)cc1 (stereo not given) = 9.37
CCOc1ccccc1-n1c(O)c(C=Nc2c(C)n(C)n(-c3ccccc3)c2=O)c(=O)[nH]c1=O = 22.7
CC(CCc1ccccc1)NC(C)C(O)c1ccc(O)cc1 (stereo not given) = 10.2
COc1ccc(Cn2c(O)c(C=NCCN3CCOCC3)c(=O)[nH]c2=O)cc1 = 19.3
C[N+]1(C)[C@@H]2CC(OC(=O)[C@H](CO)c3ccccc3)C[C@H]1[C@@H]1O[C@@H]12 (stereo not given in full) = -0.493
CC(=O)OC1(c2ccc(C)cc2)CN2CCC1c1ccccc12 (stereo not given) = 25.8
O=c1c2ccccc2[se]n1-c1ccccc1 = 7.39
CC(=O)OC1N=C(c2ccccc2)c2ccccc2NC1=O (stereo not given) = 6.04
CCN(CC)CCCC(C)N=C(c1ccccc1)c1c(O)n(C)c(=O)n(C)c1=O (stereo not given) = -1.12
COc1cccc(CN2CCN(C(=O)COc3ccc4ccccc4c3)CC2)c1 = 11
COC(=O)C(O)(c1c[nH]c2ccccc12)C(F)(F)F (stereo not given) = -5.26
Cn1c(O)c(C=NCCCNC2CCCCC2)c(=O)n(C)c1=O = 26.5
COc1ccc(C2SCC(=O)Nc3c2c(=O)[nH]n3C2CCCCC2)cc1 (stereo not given) = 14
OCCOCC#CCN1CCOCC1 = 17.8
COc1ccc(-n2c(SC)nc3ccccc3c2=O)cc1 = 4.25

----------
Reported inhibition values for a set of compounds
- measurement description: blockers of RIG-like receptor reporter activation – cell-based, Sendai virus stimulus, luciferase, 10K MLSCN set, TLR/RLR signaling modifier project, primary screen (AID 602276);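 further: firefly luciferase from ISG56 promoter only with Renilla not read in this screen; 0% = Sendai virus plus DMSO and 100% = medium plus DMSO without virus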
- measurement conditions: HEK293 RL24 IRF3 luciferase reporter, at 10 µM, stronger effect = higher value
recorded metric: inhibition (%)

OCCOCC#CCN1CCOCC1 = 19.2
CCOc1ccc(Br)c(C2(O)CC(C)N(C)CC2C)c1 (configuration not stated) = 12.4
O=C(O)Cn1cc(C(=O)c2ccccc2)c2ccccc21 = 9.27
CN(C)[C@@H]1C(=O)C(C(N)=O)=C(O)[C@@]2(O)C(=O)C3=C(O)c4c(O)cccc4[C@@](C)(O)[C@H]3[C@H](O)[C@@H]12 = -6.24
COP(=O)(OC)C(O)C(Cl)(Cl)Cl (configuration not stated) = 17.5
Cn1c(C(=O)N2CCC3(CC2)OCCO3)cc2c(=O)n(C)c3ccccc3c21 = 13.8
COc1ccc(S(=O)(=O)NC(CC(=O)N2CCC3(CC2)OCCO3)c2ccco2)cc1 (configuration not stated) = 17.9
CCCCn1c(O)c(C(CC)=Nc2cccc(C(=O)O)c2)c(=O)[nH]c1=O = 9.53
Cc1ccc2c(c1)[C@@H]1CN(C)CC[C@@H]1N2C(=O)Nc1cccc(C(F)(F)F)c1 = 20.1
CC1CCN2c3nc4ccccn4c(=O)c3CC3(C(=O)N(C)C(=O)N(C)C3=O)C2C1 (configuration not stated) = 10.8
CCn1c(C)c(C(=O)O)c2cc(OC)ccc21 = 14.5
CCOC(=O)C1SC2(C(F)F)CC1(O)c1c(c(OC)c3occc3c1OC)O2 (configuration not stated) = 4.1
Clc1ccc(COC(Cn2ccnc2)c2ccc(Cl)cc2Cl)c(Cl)c1 (configuration not stated) = 15.4
C=CCN1C(=O)C2(C(C(=O)OCC)=C(N)Oc3c2c(=O)oc2ccccc32)c2ccccc21 (configuration not stated) = 13.6
C=CCn1c(O)c(C(C)=NCCCO)c(=O)[nH]c1=O = -1.46
c1ccc2c3c([nH]c2c1)CNCC3 = 4.35
O=C(CN1CCN(Cc2cccc(Cl)c2)C1=O)N1CCC2(CC1)OCCO2 = 4.07
Cc1ccc(C)c(C2(O)CC(C)N(C)CC2C)c1 (configuration not stated) = -14.7
CCOC(=O)c1cc2c(cn1)[nH]c1ccccc12 = -4.33
COc1ccc(CN2CCN(C(=O)Cc3ccccc3)CC2)c(OC)c1 = 15.3
Cc1nn(-c2ccccc2)c2c1CC1(C(=O)N(C)C(=O)N(C)C1=O)C1CCCCN21 (configuration not stated) = -9.7
O=C(O)CCCc1ccc(N(CCCl)CCCl)cc1 = -6.04

----------
- measurement description: inhibitors of TNFa-induced NFkB p65 translocation, primary screen, imaging, HUVEC, MLSMR starter and 10KST1 sets (AID 438);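 further: compound added about 3h40 before a 20 min TNFalpha stimulation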
- measurement conditions: HUVEC TNFa-induced p65 nuclear translocation; measured here: nuclei count (cytotoxicity indicator), at 2.08 µM
recorded metric: cell count

O=C1CC(N2CCC(n3c(=O)[nH]c4ccccc43)CC2)C(=O)N1c1ccc(F)cc1 (stereo not drawn) = 366
CCn1c(O)c(C(=O)CC2NCCc3ccccc32)c(=O)n(CC)c1=S (stereo not drawn) = 494
CCC(=NCCCN1CCOCC1)c1c(O)n(Cc2ccccc2)c(=O)[nH]c1=O = 481
O=C(NCc1ccccn1)c1ccccc1Cl = 627
C#CCN(C)C(C)Cc1ccccc1 (stereo not drawn) = 624
CC(=NCc1cccnc1)c1c(O)n(Cc2ccccc2)c(=O)[nH]c1=O = 421
CC(=O)C1(c2ccccc2)CCNCC1 = 472
Cc1nn(-c2ccccc2)c2c1CC1(C(=O)N(C)C(=O)N(C)C1=O)C1CCCCN21 (stereo not drawn) = 438
O=c1c(C=NCCN2CCNCC2)c(O)n(C2CCCCC2)c(=O)n1C1CCCCC1 = 583
O=C(Cc1ccccc1)OC(COCc1ccccc1)CN1CCOCC1 (stereo not drawn) = 314
CC1(C)CC(n2[nH]c(=O)c3c2NC(=O)CSC3c2ccccc2)CCO1 (stereo not drawn) = 532
O=c1[nH]c2ccccc2n1C1CCN(CCCC(c2ccc(F)cc2)c2ccc(F)cc2)CC1 = 544
CC(=O)[C@H]1CC[C@H]2[C@@H]3CC[C@H]4C[C@H](O)CC[C@]4(C)[C@H]3C(=O)C[C@]12C = 549
c1cncc(CNC2=NCCCCC2)c1 = 315
COc1ccc2[nH]cc(CCN(C)C)c2c1 = 560
CCC(C)NC(=O)c1c(N)n(CC2CCCO2)c2nc3ccccc3nc12 (stereo not drawn) = 603
CN(C)CCOC(=O)c1cn(Cc2ccccc2)c2ccccc12 = 639
C[C@@]1(CO)[C@H](O)CC[C@@]2(C)[C@H]1CC[C@H]1C[C@@H]3C[C@@]12CC[C@]3(O)CO = 629
CC(C)(C)C(O)C(Oc1ccc(Cl)cc1)n1cncn1 (stereo not drawn) = 268
Cc1cc(C)c(C(=O)CN2CCOCC2)c(C)c1 = 408
CC(C)C(=O)c1cn(Cc2ccccc2C#N)c2ccccc12 = 504
CC12CCCCC1=[N+]([O-])CN2O (stereo not drawn) = 725
OC(c1ccc(F)cc1)C(c1ccccc1)N1CCOCC1 (stereo not drawn) = 679
